# Measurement Protocol: Selectivity index, ratio of CC50 for human C8166 cells to EC50 for wild type HIV1 LAI-3B
# Assay type: toxicity, cell-based
# Experimental Context: read-out: Ratio CC50/EC50
Parameter: selectivity ratio
# print the numeric value only

| Given Smiles | Val |
| --- | --- |
| Cc1cccc(-n2cc(C(=O)O)c(=O)c3c(O)c(Cc4cccc(Cl)c4F)ccc32)c1 | 3.49 |
| Cc1ccc(-n2cc(C(=O)O)c(=O)c3c(O)c(Cc4cccc(Cl)c4F)ccc32)cc1 | 54.2 |
| Cc1ccc(-n2cc(C(=O)O)c(=O)c3c(O)c(Cc4cccc(Cl)c4F)ccc32)cc1C | 12.7 |

Now for the compound whose selectivity ratio we want.
// selectivity ratio lookup, compound = Cc1ccc(Cn2cc(C(=O)O)c(=O)c3c(O)c(Cc4cccc(Cl)c4F)ccc32)cc1 , result: 46
